This collection of values is drawn from patent US20250154277A1.

- tested_on: T1, human 5T4-His protein (human, UniProt Q13641 32-355)
- T1 construct: also called recombinant 5T4 protein (human 5T4-his tag); human 5T4 protein; not shown: His tag
- T1 sequence (looked up): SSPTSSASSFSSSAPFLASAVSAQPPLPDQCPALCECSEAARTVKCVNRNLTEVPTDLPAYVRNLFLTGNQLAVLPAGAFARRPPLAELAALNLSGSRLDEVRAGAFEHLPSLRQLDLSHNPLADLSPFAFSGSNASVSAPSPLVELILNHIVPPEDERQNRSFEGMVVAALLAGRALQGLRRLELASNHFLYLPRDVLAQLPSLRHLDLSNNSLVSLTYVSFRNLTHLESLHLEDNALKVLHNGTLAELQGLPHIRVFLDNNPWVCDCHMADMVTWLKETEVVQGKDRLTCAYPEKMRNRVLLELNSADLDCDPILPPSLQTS
- test_details: ELISA, coated 5T4-His
// EC50 lookup, one value per entry
Entry rule: numbers only, all in nM.

Solved cases (3 shown):
>>> assay_result("393E9_hVH2_hVL4 (antibody, V domains shown, humanized) VH: EVQLVESGGGLIQPGGSLRLSCAASGFTFTDYYMSWVRQPPGKGLEWVGFIRNKGNGYTTENSASVKGRFTISRDNSKSTLYLQMNSLRAEDTAVYYCARYRGNPHYAMDYWGQGTLVTVSS VL: DIVLTQSPLSLPVTPGEPASISCRASESVEFYGTSFLQWYLQKPGQSPQLLIYGASNVESGVPDRFSGSGSGTDFTLKISRVEAEDIGVYFCQQSRKVPSTFGGGTKVEIK")
0.12
>>> assay_result("393E9_hVH5_hVL1 (antibody, V domains shown, humanized) VH: EVQLVESGGGLVQPGRSLRLSCTASGFTFTDYYMSWVRQAPGKGLEWVGFIRNKGNGYTTENSASVKGRFTISRDNSKSILYLQMNSLKTEDTAVYYCARYRGNPHYAMDYWGQGTLVTVSS VL: DIVLTQSPDSLAVSLGERATINCRASESVEFYGTSFLQWYQQKPGQPPKLLIYGASNVESGVPDRFSGSGSGTDFTLTISSLQAEDIAVYFCQQSRKVPSTFGGGTKVEIK")
0.16
>>> assay_result("393E9_hVH3_hVL2 (antibody, V domains shown, humanized) VH: QVQLVESGGGVVQPGGSLRLSCAASGFTFTDYYMSWVRQAPGKGLEWVGFIRNKGNGYTTENSASVKGRFTISRDNSKSTLYLQMNSLRAEDTAVYYCARYRGNPHYAMDYWGQGTLVTVSS VL: EIVLTQSPATLSVSPGERATLSCRASESVEFYGTSFLQWYQQKPGQAPRLLIYGASNVESGIPARFSGSGSGTEFTLTISSLQSEDIAVYFCQQSRKVPSTFGGGTKVEIK")
0.2

// query Fill in the blank: the reported EC50 of 393E9_hVH1_hVL1 (antibody, V domains shown, humanized) VH: EVQLVESGGGLVQPGGSLRLSCAASGFTFTDYYMSWVRQAPGKGLEWVGFIRNKGNGYTTENSASVKGRFTISRDNSKSTLYLQMNSLRAEDTAVYYCARYRGNPHYAMDYWGQGTLVTVSS VL: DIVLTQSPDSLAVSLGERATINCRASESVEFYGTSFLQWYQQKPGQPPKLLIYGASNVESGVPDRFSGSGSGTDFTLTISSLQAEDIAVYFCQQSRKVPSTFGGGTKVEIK is ____.
// result 0.18
